# EXPERIMENTAL TARGET: PERK (Homo sapiens, UniProt Q9NZJ5)
# ASSAY NOTES: PERK enzyme assay (HTRF)
# Type: biochemical
# CONDITION PARAMETERS: PERK Enzyme (500 μM ATP) IC50; at least one experimental run; read-out: PERK Activity
MEASURE: IC50

Reported IC50 of CN1C(=O)N(c2ccc(-c3cn(C)c4ncnc(N)c34)c(F)c2)CC1c1ccccn1 (stereo not shown) [Example 7] : < 100 nM

IC50 reading for CN1C(=O)N(c2ccc(-c3cn(C)c4ncnc(N)c34)c(F)c2)CC1C1CCCCC1 (single isomer, unassigned) [Example 62] : < 100 nM

# molecule Cc1nc(N)c2c(-c3ccc(N4CC(c5cc(F)ccc5F)N(C)C4=O)cc3F)cn(C)c2n1 (single isomer, unassigned) [Example 38] ; its IC50 = > 1000 nM

Recorded result, CN1C(=O)N(c2ccc(-c3cn(C4CC4)c4ncnc(N)c34)c(F)c2)CC1c1ccccc1 (single isomer, unassigned) [Example 166] , IC50: < 100 nM

CCN1C(=O)N(c2ccc(-c3cn(C)c4ncnc(N)c34)c(F)c2)CC1c1cccc(Cl)c1F (stereo not shown) [Example 22] has a reported IC50 of 100 to 1000 nM

The recorded IC50 for entry CN1C(=O)N(c2ccc(-c3cn(C4CC4)c4ncnc(N)c34)c(F)c2)CC1c1ccccc1 (single isomer, unassigned) [Example 165] equals < 100 nM

Memo: CCN1C(=O)N(c2ccc(-c3cn(C)c4ncnc(N)c34)c(F)c2)CC1c1cccc(F)c1F (stereo not shown) [Example 75] , reported IC50: 100 to 1000 nM

Record CN1C(=O)N(c2ccc(-c3cn(C4CC4)c4ncnc(N)c34)c(F)c2)CC1c1cccc(F)c1 (single isomer, unassigned) [Example 126] , field IC50: < 100 nM

====

# EXPERIMENTAL TARGET: PERK (Homo sapiens, UniProt Q9NZJ5)
# Sequence (Q9NZJ5 30-1116): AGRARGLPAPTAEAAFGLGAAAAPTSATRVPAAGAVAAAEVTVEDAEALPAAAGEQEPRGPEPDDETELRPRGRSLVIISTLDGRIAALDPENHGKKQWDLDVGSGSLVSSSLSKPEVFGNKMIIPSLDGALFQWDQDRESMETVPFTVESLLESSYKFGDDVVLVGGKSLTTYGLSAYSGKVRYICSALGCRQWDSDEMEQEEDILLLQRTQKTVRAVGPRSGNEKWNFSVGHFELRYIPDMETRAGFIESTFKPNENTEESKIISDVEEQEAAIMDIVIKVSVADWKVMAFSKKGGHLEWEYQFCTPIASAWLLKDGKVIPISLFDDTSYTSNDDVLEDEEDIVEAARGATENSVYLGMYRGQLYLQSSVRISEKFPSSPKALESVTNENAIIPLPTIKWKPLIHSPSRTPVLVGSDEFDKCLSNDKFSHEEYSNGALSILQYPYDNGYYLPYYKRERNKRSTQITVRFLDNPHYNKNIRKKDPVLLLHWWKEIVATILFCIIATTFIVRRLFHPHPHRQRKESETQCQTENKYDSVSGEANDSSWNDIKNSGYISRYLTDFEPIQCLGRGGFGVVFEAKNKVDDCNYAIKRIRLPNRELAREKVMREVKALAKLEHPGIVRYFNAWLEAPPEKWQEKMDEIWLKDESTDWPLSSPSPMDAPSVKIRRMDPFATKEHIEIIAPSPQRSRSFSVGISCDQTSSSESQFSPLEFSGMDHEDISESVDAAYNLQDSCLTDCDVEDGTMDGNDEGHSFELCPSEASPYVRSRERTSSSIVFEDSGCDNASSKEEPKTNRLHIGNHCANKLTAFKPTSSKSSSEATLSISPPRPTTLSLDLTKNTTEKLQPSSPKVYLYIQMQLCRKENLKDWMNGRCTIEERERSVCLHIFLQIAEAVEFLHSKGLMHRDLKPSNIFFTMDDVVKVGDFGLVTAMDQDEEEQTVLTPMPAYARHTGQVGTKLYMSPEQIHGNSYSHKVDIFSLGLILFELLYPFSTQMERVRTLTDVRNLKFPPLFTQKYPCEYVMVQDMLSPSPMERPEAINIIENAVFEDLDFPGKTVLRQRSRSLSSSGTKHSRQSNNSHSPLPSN
# ASSAY NOTES: PERK enzyme assay (HTRF)
# Assay type: biochemical
# CONDITION PARAMETERS: PERK Enzyme (500 μM ATP) IC50; at least one experimental run; read-out: PERK Activity
pIC50: −log10 of the molar value.
MEASURE: pIC50

Study these solved cases before continuing.
According to the records, this molecule CN1C(=O)N(c2ccc(-c3cn(C4CC4)c4ncnc(N)c34)c(F)c2)CC1c1cc(F)cc(F)c1F (single isomer, unassigned) [Example 143] displays pIC50 of 6.00 to 7.00

The molecule listed as CCN1C(=O)N(c2ccc(-c3cn(C4CC4)c4ncnc(N)c34)c(F)c2)CC1c1cc(F)cc(F)c1 (single isomer, unassigned) [Example 173] has a reported pIC50 of > 7.00

pIC50 measured on Cc1nc(N)c2c(-c3ccc(N4CC(c5ccc(F)cc5F)N(C)C4=O)cc3F)c(C)n(C)c2n1 (single isomer, unassigned) [Example 10] = < 6.00

// Cc1nc(N)c2c(-c3ccc(N4CC(c5ccc(Cl)nc5)N(C)C4=O)cc3F)cn(C)c2n1 (single isomer, unassigned) [Example 136] : pIC50 value = 6.00 to 7.00

// sample CN1C(=O)N(c2ccc(-c3cn(C)c4ncnc(N)c34)c(F)c2)CC1C1CCCCCC1 (stereo not drawn) , its pIC50 was > 7.00

Shifting focus to the molecule that follows.
Note to self: pIC50 recorded for Cc1nc(N)c2c(-c3ccc(N4CC(c5ccc(F)c(F)c5)N(C)C4=O)cc3F)cn(C)c2n1 (stereo not drawn) [Example 78] was > 7.00

====

# EXPERIMENTAL TARGET: UniProtKB Q9NZJ5
# Sequence (Q9NZJ5 30-1116): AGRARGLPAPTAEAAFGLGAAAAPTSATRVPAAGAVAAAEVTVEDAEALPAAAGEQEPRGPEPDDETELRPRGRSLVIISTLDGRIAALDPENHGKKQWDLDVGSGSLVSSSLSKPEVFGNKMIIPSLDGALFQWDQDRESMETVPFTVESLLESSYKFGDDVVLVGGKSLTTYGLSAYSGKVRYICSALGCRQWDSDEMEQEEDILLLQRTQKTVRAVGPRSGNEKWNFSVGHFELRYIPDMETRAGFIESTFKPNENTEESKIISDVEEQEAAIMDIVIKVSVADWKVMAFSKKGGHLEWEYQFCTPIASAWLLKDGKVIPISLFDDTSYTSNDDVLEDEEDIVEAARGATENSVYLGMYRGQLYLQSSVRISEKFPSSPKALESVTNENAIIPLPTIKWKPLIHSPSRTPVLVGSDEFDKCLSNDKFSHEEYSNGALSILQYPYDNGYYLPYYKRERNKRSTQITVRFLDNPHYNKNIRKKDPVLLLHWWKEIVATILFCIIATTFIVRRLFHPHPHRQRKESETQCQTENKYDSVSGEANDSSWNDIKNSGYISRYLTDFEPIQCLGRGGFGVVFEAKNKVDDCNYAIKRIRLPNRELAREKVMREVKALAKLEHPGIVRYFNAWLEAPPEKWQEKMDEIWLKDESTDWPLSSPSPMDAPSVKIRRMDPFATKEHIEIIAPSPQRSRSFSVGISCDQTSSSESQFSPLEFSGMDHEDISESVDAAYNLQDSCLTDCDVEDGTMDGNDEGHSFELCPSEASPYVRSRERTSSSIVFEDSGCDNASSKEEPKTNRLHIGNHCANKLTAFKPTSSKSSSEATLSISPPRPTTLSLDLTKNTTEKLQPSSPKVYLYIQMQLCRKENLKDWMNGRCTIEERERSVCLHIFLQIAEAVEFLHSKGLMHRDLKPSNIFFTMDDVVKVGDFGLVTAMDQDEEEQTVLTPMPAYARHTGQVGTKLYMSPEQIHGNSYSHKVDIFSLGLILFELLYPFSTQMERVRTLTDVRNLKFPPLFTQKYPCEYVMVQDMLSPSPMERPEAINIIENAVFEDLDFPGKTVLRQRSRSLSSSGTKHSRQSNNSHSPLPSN
# ASSAY NOTES: PERK enzyme assay (HTRF)
# Type: biochemical
# CONDITION PARAMETERS: PERK Enzyme (500 μM ATP) IC50; at least one experimental run; read-out: PERK Activity
# Description: Compounds of the invention were assayed for PERK enzyme inhibitory activity with modifications to previously reported conditions (Axten et al. J. Med. Chem., 2012, 55, 7193-7207). […] After 2 hrs, a fluorescence plate reader was used to measure inhibition and IC50s were calculated. […] The activity of compounds in the PERK enzyme assay was determined at PERK Enzyme (500 μM ATP) IC50 (nM).
pIC50: −log10 of the molar value.
Item-by-item account of pIC50

Examples with their reported pIC50 follow.
Documented pIC50 of Cn1cc(-c2ccc(N3CC(c4cc(F)cc(F)c4)CC3=O)nc2)c2c(N)ncnc21 (stereo not drawn) : 6.00 to 7.00

CN1C(=O)N(c2ccc(-c3cn(C)c4ncnc(N)c34)c(F)c2)CC1c1cc(F)c(F)cc1F (single isomer, unassigned) [Example 159] yielded pIC50 of 6.00 to 7.00

Form field pIC50, entry CN1C(=O)N(c2ccc(-c3cn(C)c4ncnc(N)c34)c(F)c2)CC1c1ccc(F)c(Cl)c1 (single isomer, unassigned) [Example 133] : > 7.00

Sample Cc1nc(N)c2c(-c3ccc(N4CC(c5cncc(F)c5)N(C)C4=O)cc3F)cn(C)c2n1 (single isomer, unassigned) ; pIC50 observed: 6.00 to 7.00

The molecule listed as CN1C(=O)N(c2ccc(-c3cn(C4CC4)c4ncnc(N)c34)c(F)c2)CC1c1ccc(F)cc1F (single isomer, unassigned) [Example 155] shows pIC50 equal to > 7.00

---
Reported pIC50 of CN1C(=O)N(c2ccc(-c3cn(C4CC4)c4ncnc(N)c34)c(F)c2)CC1c1ccc(F)c(Cl)c1 (single isomer, unassigned) [Example 134] : > 7.00
